// provenance: patent US6974804B2

Test: Gelling of water-immiscible cosmetic liquids in 96 well glass micro-titre plate
Assay type: physicochemical
Design: key: gel; g4: gel after overnight (18 hrs) storage at 4° C.; g22: gel after overnight (18 hrs) storage at 22° C.; sg: soft gel; sg22: soft gel after overnight (18 hrs) storage at 22° C.; solution; *: the test at 4° C. was not carried out
Settings: 10% cellobiose ester in Mineral oil

{"compound": "CCCCCCCCCC(=O)OCC1OC(OC2C(COC(=O)CCCCCCCCC)OC(OC(C)=O)C(OC(=O)CCCCCCCCC)C2OC(=O)CCCCCCCCC)C(OC(=O)CCCCCCCCC)C(OC(=O)CCCCCCCCC)C1OC(=O)CCCCCCCCC (mixture of isomers)", "gelling of Mineral oil": "gel"}
{"compound": "CCCCCCCCCCCCCCCC(=O)OC1OC(COC(=O)CCCCCCCCC)C(OC2OC(COC(=O)CCCCCCCCC)C(OC(=O)CCCCCCCCC)C(OC(=O)CCCCCCCCC)C2OC(=O)CCCCCCCCC)C(OC(=O)CCCCCCCCC)C1OC(=O)CCCCCCCCC (mixture of isomers) [Ex 2.12]", "gelling of Mineral oil": "gel"}
{"compound": "CCCCCCCCCCCC(=O)OC1OC(COC(=O)CCCCCCCC)C(OC2OC(COC(=O)CCCCCCCC)C(OC(=O)CCCCCCCC)C(OC(=O)CCCCCCCC)C2OC(=O)CCCCCCCC)C(OC(=O)CCCCCCCC)C1OC(=O)CCCCCCCC (mixture of isomers)", "gelling of Mineral oil": "g22"}
{"compound": "CCCCCCCCC(=O)OCC1OC(OC2C(COC(=O)CCCCCCCC)OC(OC(=O)CC)C(OC(=O)CCCCCCCC)C2OC(=O)CCCCCCCC)C(OC(=O)CCCCCCCC)C(OC(=O)CCCCCCCC)C1OC(=O)CCCCCCCC (mixture of isomers)", "gelling of Mineral oil": "gel"}
